Target: Vitamin D3 receptor (Homo sapiens)
Experiment: qHTS assay to identify small molecule antagonists of the vitamin D receptor (VDR) signaling pathway (AID 743223)
Details: VDR-UAS-bla HEK293T, beta-lactamase FRET ratio, 16 h; series mostly up to 61 µM
Records with an inconclusive call do not appear. The source made the active and inactive calls. Calls come from the whole dose curve; as a rule, active = well fitted inhibition curve with a large enough effect in the signal ratio in the repeat runs (not every such curve was filed as active); inconclusive = weak or mixed curves, or effect the other way; inactive = no such curve, though single readings can be large or run the other way; the % refers to the signal ratio.
METRIC NAME: outcome

COMPOUND | RESULT
CC(C)c1cccc(C(C)C)c1O | inactive
N#Cc1cccc(C#N)c1 | inactive
O=C(O)COc1ccccc1 | inactive
CC[N+](=O)[O-] | inactive
Cc1ccc(N=C=O)cc1N=C=O | inactive
C=C(C)C(=O)OCC(CC)CCCC (configuration not stated) | inactive
Cc1cccc(N)c1 | inactive
O=C(O)C(Br)Br | inactive
OCC(O)CCl (configuration not stated) | inactive
Nc1ccc(N)cc1 | inactive

QUERY: Tell me outcome reported for `CN(C)CCC#N`
RESULT: inactive

QUERY: Tell me outcome reported for `ClC(Cl)c1ccccc1`
RESULT: inactive

QUERY: Tell me outcome reported for CNCC(O)c1ccc(O)cc1 (configuration not stated)
RESULT: inactive

QUERY: Tell me outcome reported for `Nc1ncc([N+](=O)[O-])s1`
RESULT: inactive

QUERY: Tell me outcome reported for `C=CCN=C=S`
RESULT: inactive

QUERY: Tell me outcome reported for `CC(=O)/C=C/c1ccccc1`
RESULT: inactive

QUERY: Tell me outcome reported for `COc1nc(NC(C)C)nc(NC(C)C)n1`
RESULT: inactive

Source of measurements: PubChem BioAssay (Tox21)
